// provenance: patent US6054459A

- protocol: lg P (physical data)
parameter: logP

INSERT INTO measurements (compound, reported) VALUES
  ('CC(C)(C)CNC(=O)OCCCCCN1CC([N+](=O)[O-])=C2N(Cc3ccc(Cl)nc3)CCN2C1 [Example 43]', 2.01),
  ('CCCCNC(=O)OCCCCCN1CC([N+](=O)[O-])=C2N(Cc3cnc(Cl)s3)CCN2C1 [Example 78]', 1.73),
  ('O=C(Nc1ccccc1)OCCCCCN1CC([N+](=O)[O-])=C2N(Cc3ccc(Cl)nc3)CCN2C1 [Example 38]', 1.79),
  ('CC(=O)OCCNC(=O)OCCCCCN1CC([N+](=O)[O-])=C2N(Cc3ccc(Cl)nc3)CCN2C1 [Example 39]', 0.82),
  ('COC(C)(C)CNC(=O)OCCCCCCN1CC([N+](=O)[O-])=C2N(Cc3ccc(Cl)nc3)CCN2C1 [Example 57]', 1.6),
  ('O=C(Nc1ccc(S(=O)(=O)C(F)(F)F)cc1)OCCCCCCN1CC([N+](=O)[O-])=C2N(Cc3ccc(Cl)nc3)CCN2C1 [Example 49]', 2.51),
  ('O=[N+]([O-])C1=C2N(Cc3cnc(Cl)s3)CCN2CN(CCCCCO)C1 [II-16]', 0.71),
  ('CC(COC(C)(C)C)NC(=O)OCCN1CC([N+](=O)[O-])=C2N(Cc3ccc(Cl)nc3)CCN2C1 (stereo not drawn) [Example 33]', 2.26),
  ('CCCCNC(=O)OC(C)CN1CC([N+](=O)[O-])=C2N(Cc3ccc(Cl)nc3)CCN2C1 (stereo not drawn) [Example 75]', 1.63),
  ('CC(C)(C)CNC(=O)OCCCCN1CC([N+](=O)[O-])=C2N(Cc3ccc(Cl)nc3)CCN2C1 [Example 66]', 1.75),
  ('CC(C)(C)C(=O)OCCNC(=O)OCCCCCN1CC([N+](=O)[O-])=C2N(Cc3ccc(Cl)nc3)CCN2C1 [Example 40]', 1.81),
  ('CCOCCOCCNC(=O)OCCN1CC([N+](=O)[O-])=C2N(Cc3ccc(Cl)nc3)CCN2C1 [Example 32]', 1.26),
  ('CCOCCOCCNC(=O)OCCCCCCN1CC([N+](=O)[O-])=C2N(Cc3ccc(Cl)nc3)CCN2C1 [Example 47]', 1.63),
  ('CC(C)(C)NC(=O)OCCCCCCN1CC([N+](=O)[O-])=C2N(Cc3cnc(Cl)s3)CCN2C1 [Example 79]', 1.9),
  ('CC(C)(C)C(=O)OCCNC(=O)OCCCCCCN1CC([N+](=O)[O-])=C2N(Cc3ccc(Cl)nc3)CCN2C1 [Example 52]', 1.98);
